- Measured target: Shiga toxin 2 (Escherichia coli O157:H7) (UniProt P09385+P09386)
- Assay remarks: E. coli 0.157:H7 Shiga Toxin SOP - stx2 screening assay
- Format: functional
- Design: scale not given: direction of the effect not stated beside the values
- Test context: 30 µM
Measured Percent Effect of individual entries
Returns: string containing the numeric result and its unit.

// below: answered compounds
• Cc1cnc2n(c1=O)C(CC(=O)NCc1cc(-c3cccs3)on1)CS2 (stereo not given) = -30.9%
• c1cnnc(N2CCCC(NCc3cn4ccccc4n3)C2)c1 (stereo not given) = -114%
• CC(c1nc(C2CC2)no1)N1CCN(Cc2ccccc2F)CC1 (stereo not given) = 8.03%
• O=C1NCC2(CCCN(CCc3ccccc3)C2)Oc2ccccc21 (stereo not given) = -68.8%
• CCS(=O)(=O)N1CCOC2(CCCN(c3ccc(C)nn3)C2)C1 (stereo not given) = -15.9%
• CN(Cc1cccs1)C(=O)CN1CCCC1Cn1cncn1 (stereo not given) = -62.3%
• CCc1cnc2c(c1Nc1ccncc1)c(=O)n(C)c(=O)n2C = -8.05%
• Cn1cc(CNCCn2cccn2)c(-c2cccnc2)n1 = -0.247%

input: Specify the recorded Percent Effect for Cc1cnn(CC2CCCN2C(=O)CCCc2nc(C)no2)c1 (stereo not given) , system: Shiga toxin 2 (Escherichia coli O157:H7) (UniProt P09385+P09386).
output: -14.7%

input: Specify the recorded Percent Effect for N#Cc1ccc(CNCC(C(=O)N2CCOCC2)c2ccccc2)cc1 (stereo not given) , system: Shiga toxin 2 (Escherichia coli O157:H7) (UniProt P09385+P09386).
output: -26%

* * *

Measured Percent Effect of individual entries
- Measured target: Aspartate--tRNA(Asp/Asn) ligase (Mycobacterium tuberculosis (strain ATCC 25618 / H37Rv)) (UniProt P9WFW3); also: in the data most compounds retested in dose-response had high values
- Sequence (whole entry): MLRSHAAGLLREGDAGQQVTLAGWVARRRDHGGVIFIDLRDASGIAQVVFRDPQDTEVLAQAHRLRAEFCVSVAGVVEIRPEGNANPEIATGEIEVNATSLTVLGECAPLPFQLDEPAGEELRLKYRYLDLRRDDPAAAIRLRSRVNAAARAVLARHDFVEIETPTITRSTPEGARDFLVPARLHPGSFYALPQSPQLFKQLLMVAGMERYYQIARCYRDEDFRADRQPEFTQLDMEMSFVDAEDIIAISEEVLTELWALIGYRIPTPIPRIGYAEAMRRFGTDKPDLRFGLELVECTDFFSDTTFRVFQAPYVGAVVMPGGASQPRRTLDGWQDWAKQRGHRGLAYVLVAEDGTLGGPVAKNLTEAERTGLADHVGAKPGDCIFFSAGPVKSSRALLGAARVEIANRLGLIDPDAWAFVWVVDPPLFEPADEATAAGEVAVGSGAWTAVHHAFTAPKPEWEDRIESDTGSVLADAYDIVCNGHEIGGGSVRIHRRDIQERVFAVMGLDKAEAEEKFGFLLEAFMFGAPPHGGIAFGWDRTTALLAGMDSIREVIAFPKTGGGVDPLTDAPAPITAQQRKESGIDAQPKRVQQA
- Assay remarks: Assay for Asp RNA synthetase-1 from Mycobacterium tuberculosis
- Assay type: functional
- Parameters: scale not given: direction of the effect not stated beside the values
- Test context: 30 µM
All answers are understood in %, so give the number only.

// below: answered compounds
• O=C(Nc1cnn(CCN2CCOCC2)c1)c1cc(F)ccc1F = 0.211
• Cc1cccc(S(=O)(=O)NCC(C)N2CCN(C)CC2)c1Cl (stereo not drawn) = 1.52

Then there is this compound:
input: Fill in reported Percent Effect for this entry: Cc1cc2cc(C(=O)N[C@@H]3CC[C@@H](N4CCOCC4)[C@@H]3O)ccc2o1
output: 2.49

* * *

- Measured target: Shiga toxin 2 (Escherichia coli O157:H7) (UniProt P09385+P09386)
- Assay remarks: E. coli 0.157:H7 Shiga Toxin SOP - stx2 screening assay
- Type: functional
- Design: scale not given: direction of the effect not stated beside the values
- Test context: 30 µM
Property label: Percent Effect (%)
All answers are understood in %, so give the number only.

* CCS(=O)(=O)CC(=O)NC(c1ccccc1)C1CCCCC1 (configuration not stated) | 7.43
* COc1cccc(CN2CCCCCC2c2cccc(C)c2)c1O (configuration not stated) | -68.7
* O=C(NCc1ccco1)C1CCCN1Cc1nc(-c2ccco2)no1 (configuration not stated) | 23.3

input: Fill in reported Percent Effect for this entry: Cc1ccc(C(CNCc2ccncc2)N2CCOCC2)s1 (configuration not stated)
output: -29.8

* * *

- Measured target: Shiga toxin 2 (Escherichia coli O157:H7) (UniProt P09385+P09386)
- Assay remarks: E. coli 0.157:H7 Shiga Toxin SOP - stx2 screening assay
- Type: functional
- Set-up: scale not given: direction of the effect not stated beside the values
- Test context: 30 µM
Measured Percent Effect of individual entries
Returns: string containing the numeric result and its unit.

// below: answered compounds
- Fc1cccc(-c2nc(CN3CCOC(Cn4cccn4)C3)co2)c1 (centres undefined): 24.3%
- COCC(=O)N1CCC(c2noc3nc(C)cc(C(F)(F)F)c23)CC1: -10.9%

input: Fill in reported Percent Effect for this entry: COc1c(C2CCCN2C(=O)Cc2c(C)noc2C)c(C)nn1C (centres undefined)
output: 6.14%

input: Fill in reported Percent Effect for this entry: CCOC(=O)[C@]12CCCN(Cc3ccco3)C[C@H]1CN(CCN(C)C)C2
output: -6.83%

* * *

- Measured target: Ubiquitin-activating enzyme e1, putative (Leishmania donovani (strain BPK282A1)) (UniProt E9BSI1)
- Sequence (E9BSI1 as listed by the source): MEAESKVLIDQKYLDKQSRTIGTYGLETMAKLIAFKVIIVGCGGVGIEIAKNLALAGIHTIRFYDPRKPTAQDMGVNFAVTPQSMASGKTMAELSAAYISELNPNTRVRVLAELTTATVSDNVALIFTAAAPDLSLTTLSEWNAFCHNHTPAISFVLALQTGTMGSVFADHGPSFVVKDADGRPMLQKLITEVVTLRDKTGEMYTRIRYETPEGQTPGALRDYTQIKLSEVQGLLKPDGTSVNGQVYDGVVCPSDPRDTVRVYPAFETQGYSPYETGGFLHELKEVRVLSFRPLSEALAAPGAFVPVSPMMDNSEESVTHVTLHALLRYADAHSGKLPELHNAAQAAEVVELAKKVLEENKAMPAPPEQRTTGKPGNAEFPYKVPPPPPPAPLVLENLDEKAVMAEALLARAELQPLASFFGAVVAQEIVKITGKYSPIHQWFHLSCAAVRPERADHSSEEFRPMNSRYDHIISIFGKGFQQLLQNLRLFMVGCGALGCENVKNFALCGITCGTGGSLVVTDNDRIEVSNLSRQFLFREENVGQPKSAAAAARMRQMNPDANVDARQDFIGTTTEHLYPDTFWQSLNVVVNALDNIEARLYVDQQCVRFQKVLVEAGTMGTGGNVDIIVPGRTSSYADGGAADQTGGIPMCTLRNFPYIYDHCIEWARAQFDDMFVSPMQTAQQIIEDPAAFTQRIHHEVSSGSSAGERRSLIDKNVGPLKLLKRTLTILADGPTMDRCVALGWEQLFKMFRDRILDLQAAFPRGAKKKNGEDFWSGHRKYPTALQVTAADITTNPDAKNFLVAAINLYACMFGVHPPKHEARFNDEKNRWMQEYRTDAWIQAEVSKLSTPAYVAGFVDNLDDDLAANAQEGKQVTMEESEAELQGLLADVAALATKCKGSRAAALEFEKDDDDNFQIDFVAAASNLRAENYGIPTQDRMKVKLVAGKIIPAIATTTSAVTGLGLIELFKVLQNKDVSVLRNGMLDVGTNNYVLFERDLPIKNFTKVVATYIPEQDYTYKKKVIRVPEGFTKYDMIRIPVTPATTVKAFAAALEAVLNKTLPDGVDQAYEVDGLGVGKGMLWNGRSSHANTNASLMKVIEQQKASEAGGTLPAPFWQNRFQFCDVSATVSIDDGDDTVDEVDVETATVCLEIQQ
- Assay remarks: Leishmania donovani Ubiquitin Activating Enzyme (LdE1)
- Type: functional
- Parameters: scale not given: direction of the effect not stated beside the values
- Test context: 30 µM
Entries with a potency or affinity are not part of this list.
Property label: Percent Effect (%)
All answers are understood in %, so give the number only.

• CNC(=O)CN1CCOCC2(CCCN(Cc3cccnc3)C2)C1 (configuration not stated) = -2.7

input: Fill in reported Percent Effect for this entry: c1cc(CO[C@@H]2CC[C@H]3[C@H]2OCCN3Cc2ccoc2)ccn1
output: 13.5

input: Fill in reported Percent Effect for this entry: CC(C)c1nccc([C@H]2C[C@@H]3CCN(Cc4ccoc4)C[C@H]3O2)n1
output: -6.49

input: Fill in reported Percent Effect for this entry: CC(C)CN1CCC2(CC1)C(=O)Nc1ccc(C(=O)N(C)C)cc12
output: 5.41

input: Fill in reported Percent Effect for this entry: COCCN1C[C@H]2[C@@H](C1)N(C(=O)COc1ccccc1)CC[C@H]2OC
output: 3.9

input: Fill in reported Percent Effect for this entry: Cc1cnc(N2CCCC3(CCCN(C)C3)C2)nc1 (configuration not stated)
output: 0

input: Fill in reported Percent Effect for this entry: C[C@@H]1C(=O)NC[C@H]2CN(Cc3ccsc3)C[C@H]21
output: 3.9

* * *

- Measured target: Shiga toxin 2 (Escherichia coli O157:H7) (UniProt P09385+P09386)
- Assay remarks: E. coli 0.157:H7 Shiga Toxin SOP - stx2 screening assay
- Assay type: functional
- Set-up: scale not given: direction of the effect not stated beside the values
- Test context: 30 µM
Property label: Percent Effect (%)
All answers are understood in %, so give the number only.

// below: answered compounds
• Cc1noc2ncc(C(=O)NCC3CCOC3)cc12 (stereo unspecified) = 16.2
• CC(C)OCCOCc1cccc(NC(=O)NCCn2ccnc2)c1 = -31.1
• O=C(c1c[nH]c(=O)c(Cl)c1)N1C[C@@H]2CC[C@H](C1)N(Cc1ccccc1)C2 = 3.61
• CN(C)c1cc(CNC(=O)Nc2ccc(S(C)(=O)=O)nc2)ccn1 = -117
• COCCN1CCC(NCc2cccc(F)c2)C1 (stereo unspecified) = -17.4

input: Fill in reported Percent Effect for this entry: O=C(c1ccc[nH]1)N1CCCC2(CCN(c3ccsc3)C2=O)C1 (stereo unspecified)
output: 3.06

input: Fill in reported Percent Effect for this entry: O=C(Cn1nc2c(cc1=O)CCCC2)N[C@@H](C(=O)O)c1ccccc1
output: -35.6

input: Fill in reported Percent Effect for this entry: Cc1cnn(CCC(=O)N2CCC(Nc3cccnn3)CC2)c1
output: 16.1

input: Fill in reported Percent Effect for this entry: Cc1cc(NC(=O)CCc2ccsc2)n(C)n1
output: -17.7

input: Fill in reported Percent Effect for this entry: CC(=O)N1CCC(Cc2cnc(-c3c(C)nn(C)c3C)cn2)C1 (stereo unspecified)
output: -8.45

input: Fill in reported Percent Effect for this entry: CCn1cc(NC(=O)NCC(O)CN2CCCCC2)cn1 (stereo unspecified)
output: 21.2

* * *

- Measured target: Arginase-2, mitochondrial (Homo sapiens) (UniProt P78540)
- Sequence (P78540 whole entry): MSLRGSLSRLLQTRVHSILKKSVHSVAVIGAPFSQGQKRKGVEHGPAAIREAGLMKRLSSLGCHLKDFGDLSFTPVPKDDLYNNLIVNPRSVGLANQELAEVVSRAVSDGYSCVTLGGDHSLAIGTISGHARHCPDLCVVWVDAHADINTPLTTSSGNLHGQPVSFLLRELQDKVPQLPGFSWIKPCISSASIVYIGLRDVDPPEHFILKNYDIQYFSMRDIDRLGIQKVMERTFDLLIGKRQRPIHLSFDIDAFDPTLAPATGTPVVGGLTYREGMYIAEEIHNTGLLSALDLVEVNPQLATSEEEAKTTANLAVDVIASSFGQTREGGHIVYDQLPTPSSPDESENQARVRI
- Assay remarks: in vitro enzyme assay to detect the production of urea directly proportional to the activity of Arginase II; also: in the data most compounds retested in dose-response had high values
- Format: functional
- Set-up: scale not given: direction of the effect not stated beside the values
- Test context: 33.3 µM
Property label: Percent Effect (%)
All answers are understood in %, so give the number only.

* c1cncc(N2CCCC3(CN(Cc4cccs4)CCO3)C2)c1 (stereo not drawn) | -1.59
* Cc1nc(C)c(CC(=O)N2C[C@@H]3CC[C@H](C2)N(CC2CCC2)C3)c(=O)[nH]1 | 16.1
* COCCN1C[C@@H]2[C@@H](OC)CCN(Cc3cccc(C)n3)[C@@H]2C1 | -2
* COc1cccc([C@@H]2CCN(Cc3ccc4ccccc4n3)C[C@H]2O)c1 | 18.5
* CN1C(=O)C2(CCN(CCO)C2)c2ccccc21 (stereo not drawn) | 0.319

input: Fill in reported Percent Effect for this entry: CCN1CCC(c2cncc(N(C)C)n2)CC1
output: -3.96

input: Fill in reported Percent Effect for this entry: Cc1cc(CN2CC[C@H]3OCC[C@@]3(C(=O)NC(C)C)C2)no1
output: 4.52

input: Fill in reported Percent Effect for this entry: COCCO[C@@H]1C[C@H]2CN(C(=O)c3ccc(C)nc3)CCN2C1
output: -51.4
